# STUDY_TARGET: PD-1/PD-L1 protein/protein interaction (Homo sapiens (Human))
# Sequence (Q9NZQ7 19-238): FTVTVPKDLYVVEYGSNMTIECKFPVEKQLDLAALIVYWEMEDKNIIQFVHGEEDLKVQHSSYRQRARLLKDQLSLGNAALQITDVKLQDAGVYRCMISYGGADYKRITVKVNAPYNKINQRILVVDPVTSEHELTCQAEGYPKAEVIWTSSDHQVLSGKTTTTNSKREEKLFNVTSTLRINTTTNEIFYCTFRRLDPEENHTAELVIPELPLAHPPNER
# ASSAY_SUMMARY: PD-1/PD-L1 Homogeneous Time-Resolved Fluorescence (HTRF) Binding Assay
# CONDITION_SUMMARY: recombinant human PD-L1 (19-238) His-tag 10 nM, human PD-1 (25-167) Fc tag 3 nM, 25° C., PBS pH 7.4
QUANTITY_MEASURED: IC50

Take a look at these entries with their results.
CHEMICAL_STRUCTURE: COc1cccc(-c2cccc(NC(=O)c3cc(CNCCO)n(C)n3)c2C#N)c1F
IC50: ≤ 100 nM
//
CHEMICAL_STRUCTURE: Cc1c(NC(=O)c2cc(CNCCO)n(C)n2)cccc1-c1ccccc1
IC50: ≤ 100 nM
//
CHEMICAL_STRUCTURE: Cc1c(NC(=O)c2ncc(CNCCO)n2C)cccc1-c1ccccc1
IC50: ≤ 100 nM
//
CHEMICAL_STRUCTURE: Cc1c(NC(=O)c2ncc(CNCCO)s2)cccc1-c1ccccc1
IC50: ≤ 100 nM
//
CHEMICAL_STRUCTURE: Cc1c(COc2cc(OCc3cncc(C#N)c3)c(CN3CCCC[C@H]3C(=O)O)cc2Cl)cccc1-c1cccc(NC(=O)c2ncc(CNCCO)s2)c1C
IC50: ≤ 100 nM

Request: Reported IC50 for "Cc1c(COc2cc(OCc3cncc(C#N)c3)c(CN3CCCC[C@H]3C(=O)O)cc2Cl)cccc1-c1cccc(NC(=O)c2ncc(CN3CC[C@@H](O)C3)s2)c1C" : what is it?
Response: ≤ 100 nM

Request: Reported IC50 for "Cn1nc(C(=O)Nc2cccc(-c3cccc4c3cnn4C)c2C#N)cc1CNCCO" : what is it?
Response: ≤ 100 nM

Request: Reported IC50 for "Cn1nc(C(=O)Nc2cccc(-c3ccc4c(c3)OCCO4)c2C#N)cc1CNCCO" : what is it?
Response: ≤ 100 nM

Request: Reported IC50 for "Cc1nc(C(=O)Nc2cccc(-c3ccccc3)c2C)sc1CNCCO" : what is it?
Response: ≤ 100 nM

Request: Reported IC50 for "COc1cccc(-c2cccc(NC(=O)c3ncc(CNCCO)n3C)c2C#N)c1F" : what is it?
Response: ≤ 100 nM

Request: Reported IC50 for "Cn1nc(C(=O)Nc2cccc(-c3ccccc3F)c2C#N)cc1CNCCO" : what is it?
Response: ≤ 100 nM

Request: Reported IC50 for "Cc1c(NC(=O)c2ncc(CN3CCCC[C@H]3C(=O)O)n2C)cccc1-c1ccccc1" : what is it?
Response: 100 to 500 nM

Request: Reported IC50 for "Cc1c(NC(=O)c2cc(CN3CC[C@@H](O)C3)n(C)n2)cccc1-c1cccc(NC(=O)c2ncc(CN3CC[C@@H](O)C3)s2)c1C" : what is it?
Response: ≤ 100 nM

Request: Reported IC50 for "Cc1c(NC(=O)c2ncc(CN3CCCC[C@H]3C(=O)O)s2)cccc1-c1ccccc1" : what is it?
Response: ≤ 100 nM
